Molecular target: T1, bacterially produced human IL-6 (human, UniProt P05231 30-212)
T1 construct: also called bactIL-6; prokaryotic IL-6
Assay: SPR; periplasmic fraction
assay-metric: koff (s⁻¹)
A number alone suffices; assume s⁻¹.

Solved entries (count: 3):
Fab 24D10 (Fab, V domains shown, Fab; also called pur24d10; 28f12(24D10)) VH: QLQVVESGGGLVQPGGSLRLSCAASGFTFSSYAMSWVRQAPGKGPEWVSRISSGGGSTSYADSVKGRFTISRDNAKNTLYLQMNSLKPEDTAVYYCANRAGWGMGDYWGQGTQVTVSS VL: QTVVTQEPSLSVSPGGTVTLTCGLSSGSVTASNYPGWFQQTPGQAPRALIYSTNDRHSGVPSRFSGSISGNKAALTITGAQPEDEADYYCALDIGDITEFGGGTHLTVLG = 0.000183
Fab 24G3 (Fab, V domains shown, Fab; also called 28g12(24G3)) VH: QLQVVESGGGLVQPGSSLRLSCGASGFTFSSHRMYWVRQPPGKGLEWVSAISSSGVSTYYADSVKGRFTISRDNAKNTVYLQMNSLKPEDTALYYCKRRTWYGGEYDYWGQGTQVTVSS VL: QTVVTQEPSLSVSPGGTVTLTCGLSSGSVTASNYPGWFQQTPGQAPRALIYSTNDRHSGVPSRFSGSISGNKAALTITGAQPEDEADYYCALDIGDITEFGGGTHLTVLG = 0.000112
Fab 24A3 (Fab, V domains shown, Fab; also called 28f10(24A3)) VH: QVQVQESGGGLVQPGGSLRLSCAASGFTFSNYAMSWVRQAPGKGLEWVSGISFRGGMISYVDSVKGRFTISRDNAKNTLYLQMNSLKPEDTAVYYCAKNSGSSRSNALDAWGQGTLVTVSS VL: LNFMLTQPPSVSGSPGQKFTIRCTGSFRSDSYVNWYQQLPGTAPKLLINYDDRRVSGVPSRFSGSKSGNSASLTIDGLQAEDEAEYYCSFWDHTFGGHVFGGGTKLTVLG = 8.42e-05

The binder identified as Fab 28B6 (Fab, V domains shown, Fab; also called 28f3(28B6)) VH: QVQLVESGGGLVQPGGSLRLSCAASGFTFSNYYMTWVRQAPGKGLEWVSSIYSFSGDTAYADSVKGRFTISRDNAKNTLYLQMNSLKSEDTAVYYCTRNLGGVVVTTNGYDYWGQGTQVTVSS VL: DIQLTQSPSSLSASLGDRVTITCQASQSISTELSWYQQKPGQTPKLLIYGASRLQTGVPARFSGSGSGTSFTLTISGLEAEDLATYYCLQDYSWPYSFGSGTRL registered its koff at 7.71e-05
